All values here come from patent EP0468434B1.

# target-of-assay: oxidosqualene cyclase (Rattus norvegicus, UniProt P48450)
# Sequence (P48450 whole entry): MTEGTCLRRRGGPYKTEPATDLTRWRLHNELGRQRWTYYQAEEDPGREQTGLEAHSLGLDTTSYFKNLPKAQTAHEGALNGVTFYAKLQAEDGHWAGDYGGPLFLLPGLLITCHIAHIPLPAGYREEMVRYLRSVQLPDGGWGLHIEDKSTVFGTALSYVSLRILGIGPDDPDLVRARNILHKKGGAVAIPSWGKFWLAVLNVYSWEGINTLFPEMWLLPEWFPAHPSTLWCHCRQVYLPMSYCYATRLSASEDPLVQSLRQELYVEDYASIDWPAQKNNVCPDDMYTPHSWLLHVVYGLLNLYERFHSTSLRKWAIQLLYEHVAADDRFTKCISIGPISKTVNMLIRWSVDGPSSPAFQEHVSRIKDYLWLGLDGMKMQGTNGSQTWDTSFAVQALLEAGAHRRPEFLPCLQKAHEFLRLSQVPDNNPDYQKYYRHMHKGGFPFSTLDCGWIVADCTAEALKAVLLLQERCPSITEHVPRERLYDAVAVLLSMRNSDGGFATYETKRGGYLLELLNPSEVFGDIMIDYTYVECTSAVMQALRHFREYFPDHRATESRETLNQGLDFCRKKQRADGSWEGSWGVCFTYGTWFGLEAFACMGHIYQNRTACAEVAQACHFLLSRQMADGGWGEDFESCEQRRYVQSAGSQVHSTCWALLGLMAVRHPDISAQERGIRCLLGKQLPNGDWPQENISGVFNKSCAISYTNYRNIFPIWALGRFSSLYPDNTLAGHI
endpoint: IC50 (µM)
// note: answer is a bare numeric in µM

Lookup: Entry under review: CC(C)CCSCCCCCN1CCCCC1 [Compound A] . Reported IC50?
Found: 24
